- System: SK-MEL-2 melanoma
- experiment: NCI-60 one-dose screen, 48 h
- condition.description: 10 µM unless noted
This is part of a sample that, as a whole, favours compounds with a hit. Of some 83,000 tested, about 20% had one in any assay. Calls of active or inactive are those of the source. The calls were made as follows: active = growth percent below 10; inactive = the rest.
Labels: 1 (yes) = active, 0 (no) = inactive

[[record]]
molecule = "COC(=O)c1ccc(NC2=C/C(=N/S(=O)(=O)c3ccc(C(=O)O)cc3)c3ccccc3C2=O)cc1"
label_class = "1 (yes)"

[[record]]
molecule = "C=C(C=O)[C@@H]1CC[C@]2(CO)CC[C@]3(C)[C@H](CC[C@@H]4[C@@]5(C)CCCNC(C)(C)[C@@H]5CC[C@]43C)[C@@H]12"
label_class = "0 (no)"

[[record]]
molecule = "O=c1[nH]c2ccccc2cc1CSc1ccccc1Nc1nccc(-c2ccc(Cl)cc2)n1"
label_class = "0 (no)"

[[record]]
molecule = "CS(=O)(=O)Nc1cc(-c2ccc3ncc(C#N)c(Nc4cccc(Cl)c4F)c3c2)cnc1Cl"
label_class = "1 (yes)"

[[record]]
molecule = "Cc1c(F)cc(C(N)=O)cc1NCC(=O)Nc1ccc([N+](=O)[O-])cc1"
label_class = "0 (no)"

[[record]]
molecule = "CC(=O)Nc1cccc(Nc2nc(N[C@@H](C)c3ccccc3)c3ccccc3n2)c1"
label_class = "0 (no)"

[[record]]
molecule = "COc1ccc(/C=N/NC(=O)c2cn(C3CC3)c3c(OC)c(N4CC5CCCNC5C4)c(F)cc3c2=O)cc1 (centres undefined)"
label_class = "0 (no)"

[[record]]
molecule = "O=c1c2ccccc2nc(COc2ccccc2)n1NS(=O)(=O)c1ccc(Cl)cc1"
label_class = "0 (no)"

[[record]]
molecule = "N#Cc1cnc2ccc(-c3cnc(N)nc3)cc2c1N1CCc2cc(F)c(Cl)cc21"
label_class = "1 (yes)"


====

- System: SF-539 CNS
- experiment: NCI-60 one-dose screen, 48 h (100 = growth as untreated, 0 = no growth, -100 = all killed)
- condition.description: 10 µM unless noted
The panel holds about 83,000 compounds, 20% with a hit somewhere; the sample as a whole holds those more often.
// growth lookup, one value per entry
endpoint: growth (%)

[[record]]
molecule = "O=[N+]([O-])c1cc(/C=N/Nc2nc(N/N=C/c3ccc(Cl)c([N+](=O)[O-])c3)nc(N3CCCCC3)n2)ccc1Cl"
assay_system = "SF-539 CNS"
endpoint = "growth"
unit_symbol = "%"
measured = 36.3

[[record]]
molecule = "O=C(Cn1cc(-c2ccccc2)nn1)Nc1nc(-c2ccc(Cl)cc2)cs1"
assay_system = "SF-539 CNS"
endpoint = "growth"
unit_symbol = "%"
measured = 108

[[record]]
molecule = "CC(C)c1ccc(NCc2cn(-c3ccc(C(=O)O)cc3)nc2-c2cc(C(F)(F)F)cc(C(F)(F)F)c2)cc1"
assay_system = "SF-539 CNS"
endpoint = "growth"
unit_symbol = "%"
measured = 83.6

[[record]]
molecule = "CCc1cccc2c3c(sc12)C(c1ccc(Cl)cc1)C(C#N)=C(/N=C/c1ccc(Cl)cc1)O3 (centres undefined)"
assay_system = "SF-539 CNS"
endpoint = "growth"
unit_symbol = "%"
measured = -7.57

[[record]]
molecule = "CCO/C=N/C1=C(C#N)C(c2ccc(OC)cc2)c2sc3c(CC)cccc3c2O1 (centres undefined)"
assay_system = "SF-539 CNS"
endpoint = "growth"
unit_symbol = "%"
measured = 4.01

[[record]]
molecule = "O=c1c2ccccc2nc(COc2ccccc2)n1NS(=O)(=O)c1ccc(Cl)cc1"
assay_system = "SF-539 CNS"
endpoint = "growth"
unit_symbol = "%"
measured = 86.9

[[record]]
molecule = "CCN(CC)c1cn(-c2ccc(S(N)(=O)=O)cc2)nn1"
assay_system = "SF-539 CNS"
endpoint = "growth"
unit_symbol = "%"
measured = 99.6

[[record]]
molecule = "COc1cc(/C=C2\\C(=O)Nc3ccccc32)ccc1OCc1ccc(F)cc1"
assay_system = "SF-539 CNS"
endpoint = "growth"
unit_symbol = "%"
measured = 102

[[record]]
molecule = "CCCCCc1ccc(S(=O)(=O)Nc2cccc(-c3csc(NC(=O)CN4CCN(C)CC4)n3)c2)cc1"
assay_system = "SF-539 CNS"
endpoint = "growth"
unit_symbol = "%"
measured = 82.9

